# EC50 values compiled below
TARGET_OF_ASSAY: Heat shock protein HSP90 (Homo sapiens, UniProt P07900+P08238)
METHOD_DESCRIPTION: Upregulation of Hsp70 in SKOV3 cells
Format: functional, cell-based
CONDITIONS: sk-ov-3
RECORDED_METRIC: EC50 (µM)

In [3]: df
Out[3]:
                    structure_smiles_string  measured_number
0  C=CCn1c(=O)oc2cc3c(O)c(c21)C[C@@H](C)C[C@H](OC)[C@H](O)[C@@H](C)/C=C(\C)[C@H](OC(N)=O)[C@@H](OC)/C=C\C=C(/C)C(=O)N3            2.283
1  CO[C@H]1/C=C\C=C(/C)C(=O)NC2=CC(=O)C(N)=C(C[C@@H](C)C[C@H](OC)[C@H](O)[C@@H](C)/C=C(\C)[C@@H]1OC(N)=O)C2=O            0.006
2  C=CCNc1c(O)cc2nc3oc2c1C[C@@H](C)C[C@H](OC)[C@H](O)[C@@H](C)/C=C(\C)[C@H](OC(N)=O)[C@@H](OC)/C=C\C=C\3C.Cl            3.229

====

TARGET_OF_ASSAY: Endoplasmin (Canis lupus familiaris)
Sequence (P41148 whole entry): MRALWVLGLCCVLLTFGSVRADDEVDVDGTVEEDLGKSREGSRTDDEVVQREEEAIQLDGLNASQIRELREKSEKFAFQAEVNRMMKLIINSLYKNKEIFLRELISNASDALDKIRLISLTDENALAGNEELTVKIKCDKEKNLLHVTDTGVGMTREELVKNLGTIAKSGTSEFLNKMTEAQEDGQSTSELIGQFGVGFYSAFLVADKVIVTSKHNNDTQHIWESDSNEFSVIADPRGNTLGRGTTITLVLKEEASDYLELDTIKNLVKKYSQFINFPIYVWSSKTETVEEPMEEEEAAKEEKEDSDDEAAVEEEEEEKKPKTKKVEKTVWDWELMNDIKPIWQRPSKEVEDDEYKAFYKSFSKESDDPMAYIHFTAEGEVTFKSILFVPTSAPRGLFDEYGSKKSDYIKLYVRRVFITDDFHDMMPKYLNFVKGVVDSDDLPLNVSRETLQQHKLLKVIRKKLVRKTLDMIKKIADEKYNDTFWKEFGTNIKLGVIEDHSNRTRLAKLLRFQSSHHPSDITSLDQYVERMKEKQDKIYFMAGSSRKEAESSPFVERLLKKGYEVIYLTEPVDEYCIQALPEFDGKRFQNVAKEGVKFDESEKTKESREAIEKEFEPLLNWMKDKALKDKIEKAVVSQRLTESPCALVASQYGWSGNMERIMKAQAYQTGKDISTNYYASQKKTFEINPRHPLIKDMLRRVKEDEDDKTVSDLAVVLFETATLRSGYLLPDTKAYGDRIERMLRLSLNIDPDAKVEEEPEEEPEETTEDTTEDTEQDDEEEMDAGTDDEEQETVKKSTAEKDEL
METHOD_DESCRIPTION: Inhibition of BODIPY-AG binding to dog Grp94
# EC50 values compiled below
RECORDED_METRIC: EC50 (nM)

COMPOUND	TARGET_OF_ASSAY	UOM	INEQUALITY_SYMBOL	MEASURED_NUMBER
C=CCNc1c(O)cc2c(O)c1C[C@@H](C)C[C@H](OC)[C@H](O)[C@@H](C)/C=C(\C)[C@H](OC(N)=O)[C@@H](OC)/C=C\C=C(/C)C(=O)N2.Cl [RETASPIMYCIN HYDROCHLORIDE]	Endoplasmin (Canis lupus familiaris)	nM	=	119
C=CCNc1c(O)cc2nc3oc2c1C[C@@H](C)C[C@H](OC)[C@H](O)[C@@H](C)/C=C(\C)[C@H](OC(N)=O)[C@@H](OC)/C=C\C=C\3C.Cl	Endoplasmin (Canis lupus familiaris)	nM	>	10000
CO[C@H]1/C=C\C=C(/C)C(=O)Nc2cc(O)c(NC[C@H](O)CO)c(c2O)C[C@@H](C)C[C@H](OC)[C@H](O)[C@@H](C)/C=C(\C)[C@@H]1OC(N)=O.Cl	Endoplasmin (Canis lupus familiaris)	nM	=	131
CO[C@H]1/C=C\C=C(/C)C(=O)NC2=CC(=O)C(NC[C@H](O)CO)=C(C[C@@H](C)C[C@H](OC)[C@H](O)[C@@H](C)/C=C(\C)[C@@H]1OC(N)=O)C2=O	Endoplasmin (Canis lupus familiaris)	nM	=	72

====

# EC50 values compiled below
TARGET_OF_ASSAY: Heat shock protein HSP90 (Homo sapiens, UniProt P07900+P08238)
METHOD_DESCRIPTION: Degradation of Her2 in SKOV3 cells
Type: functional, cell-based
CONDITIONS: sk-ov-3
RECORDED_METRIC: EC50 (nM)

                    structure_smiles_string  uom  measured_number
0  CO[C@H]1/C=C\C=C(/C)C(=O)NC2=CC(=O)C(NC[C@H](O)CO)=C(C[C@@H](C)C[C@H](OC)[C@H](O)[C@@H](C)/C=C(\C)[C@@H]1OC(N)=O)C2=O   nM             4585
1  CO[C@H]1/C=C\C=C(/C)C(=O)NC2=CC(=O)C(N)=C(C[C@@H](C)C[C@H](OC)[C@H](O)[C@@H](C)/C=C(\C)[C@@H]1OC(N)=O)C2=O   nM               53
2  C=CCN1C(=O)COc2cc3c(O)c(c21)C[C@@H](C)C[C@H](OC)[C@H](O)[C@@H](C)/C=C(\C)[C@H](OC(N)=O)[C@@H](OC)/C=C\C=C(/C)C(=O)N3   nM              415
